Conditions: in n-pentyl acetate, 313.15 K
Parameter measured: solubility (mole fraction)
One number for each entry.

**Q:** Can you share its solubility (mole fraction)? I mean this compound: "O=C1OC(=O)[C@H]2[C@@H]1[C@@H]1C=C[C@H]2C1"
**A:** 0.0626

---

Conditions: in NMP, 293.15 K
Parameter measured: solubility (mole fraction)
Answers are plain numbers.

**Q:** Can you share its solubility (mole fraction)? I mean this compound: "O=C1OC(=O)[C@H]2[C@@H]1[C@@H]1C=C[C@H]2C1"
**A:** 0.156

---

Conditions: in NMP, 298.15 K
Parameter measured: solubility (mole fraction)
Give bare numbers.

**Q:** Can you share its solubility (mole fraction)? I mean this compound: "O=C1OC(=O)[C@H]2[C@@H]1[C@@H]1C=C[C@H]2C1"
**A:** 0.172
